- assay-target: T1, recombinant cyno monkey PCSK9 protein (cyno monkey, UniProt A8T666 31-692 (rhesus entry), limits assumed, biotin-labelled in the ELISA (Biotin labeling kit))
- T1 construct: also called cyno PCSK9; Cyno Monkey PCSK9-His
- T1 sequence (A8T666 31-692 limits assumed): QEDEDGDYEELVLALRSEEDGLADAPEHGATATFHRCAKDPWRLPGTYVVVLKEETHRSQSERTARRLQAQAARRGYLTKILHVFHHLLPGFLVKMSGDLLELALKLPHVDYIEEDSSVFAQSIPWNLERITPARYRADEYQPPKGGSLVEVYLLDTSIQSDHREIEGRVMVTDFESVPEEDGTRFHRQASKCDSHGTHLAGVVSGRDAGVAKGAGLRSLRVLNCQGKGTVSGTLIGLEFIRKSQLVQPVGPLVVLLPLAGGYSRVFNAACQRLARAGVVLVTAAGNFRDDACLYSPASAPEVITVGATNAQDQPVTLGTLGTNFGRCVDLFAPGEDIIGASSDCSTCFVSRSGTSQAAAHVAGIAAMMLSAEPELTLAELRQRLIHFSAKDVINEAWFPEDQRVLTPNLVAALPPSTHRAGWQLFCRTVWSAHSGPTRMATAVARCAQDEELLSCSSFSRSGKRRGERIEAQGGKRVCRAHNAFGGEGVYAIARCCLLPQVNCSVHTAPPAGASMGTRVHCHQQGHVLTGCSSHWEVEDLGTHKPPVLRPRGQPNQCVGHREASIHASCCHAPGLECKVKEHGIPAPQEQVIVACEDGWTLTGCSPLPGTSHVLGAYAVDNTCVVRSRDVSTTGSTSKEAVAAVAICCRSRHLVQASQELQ
- experimental-protocol: ELISA, biotin-cyno PCSK9 on streptavidin plate; antibody 0.00067 nM
recorded-endpoint: OD450 nm (OD450 nm)
All answers are understood in OD450 nm, so give the number only.

152G2F7, chimeric anti-PCSK9 mAb purified from hybridoma (antibody, V domains shown, From Harbour H2L2 mice: human variable regions, rat constant regions) VH: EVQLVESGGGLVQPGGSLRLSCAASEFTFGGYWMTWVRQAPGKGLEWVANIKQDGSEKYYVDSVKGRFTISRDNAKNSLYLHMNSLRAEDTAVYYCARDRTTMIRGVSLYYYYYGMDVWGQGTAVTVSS VL: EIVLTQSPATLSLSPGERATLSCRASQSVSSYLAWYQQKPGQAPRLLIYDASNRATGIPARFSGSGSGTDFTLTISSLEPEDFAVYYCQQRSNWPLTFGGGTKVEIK :: 0.21
74C10A8, chimeric anti-PCSK9 mAb purified from hybridoma (antibody, V domains shown, From Harbour H2L2 mice: human variable regions, rat constant regions) VH: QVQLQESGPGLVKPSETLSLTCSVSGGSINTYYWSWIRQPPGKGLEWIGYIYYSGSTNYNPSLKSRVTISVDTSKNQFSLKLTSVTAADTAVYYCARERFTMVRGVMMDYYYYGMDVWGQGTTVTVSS VL: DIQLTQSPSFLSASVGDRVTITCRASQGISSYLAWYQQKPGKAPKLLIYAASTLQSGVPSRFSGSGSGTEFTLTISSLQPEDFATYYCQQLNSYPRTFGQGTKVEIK :: 0.34
76A1B11, chimeric anti-PCSK9 mAb purified from hybridoma (antibody, V domains shown, From Harbour H2L2 mice: human variable regions, rat constant regions) VH: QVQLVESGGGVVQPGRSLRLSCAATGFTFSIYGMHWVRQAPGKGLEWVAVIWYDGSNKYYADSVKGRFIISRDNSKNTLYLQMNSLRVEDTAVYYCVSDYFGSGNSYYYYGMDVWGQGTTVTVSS VL: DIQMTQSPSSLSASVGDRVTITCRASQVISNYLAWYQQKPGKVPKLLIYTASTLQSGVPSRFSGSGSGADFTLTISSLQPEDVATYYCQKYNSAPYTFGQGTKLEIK :: 0.23

Ask: Please give the documented OD450 nm of 139G1C5, chimeric anti-PCSK9 mAb purified from hybridoma (antibody, V domains shown, From Harbour H2L2 mice: human variable regions, rat constant regions) VH: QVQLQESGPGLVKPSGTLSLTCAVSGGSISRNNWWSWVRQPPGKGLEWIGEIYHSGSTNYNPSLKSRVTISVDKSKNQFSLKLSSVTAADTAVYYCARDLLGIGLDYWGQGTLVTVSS VL: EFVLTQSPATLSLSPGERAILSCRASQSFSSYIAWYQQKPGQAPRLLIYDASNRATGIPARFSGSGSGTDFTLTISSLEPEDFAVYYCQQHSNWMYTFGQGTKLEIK
Reply: 0.26
